- study target: wtPSP (human phosphoserine phosphatase, PSP) (Homo sapiens, UniProt P78330, D32G/R27S)
- Construct: recombinant human PSP with His-tag, plasmid pET28_hPSP, E. coli BL21(DE3), Talon purification, homodimer (54 kDa expected; 53 kDa by SEC)
- Sequence (P78330 whole entry R27S/D32G): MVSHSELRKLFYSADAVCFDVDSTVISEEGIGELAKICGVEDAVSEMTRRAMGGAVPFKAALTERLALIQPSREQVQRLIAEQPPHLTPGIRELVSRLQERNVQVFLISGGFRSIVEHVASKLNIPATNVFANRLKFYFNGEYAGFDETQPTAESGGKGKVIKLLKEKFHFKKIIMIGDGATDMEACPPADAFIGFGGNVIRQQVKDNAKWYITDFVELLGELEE
- procedure text: PNP-coupled phosphate release assay

# smiles notation, study target, IC50 (µM)
data = [
    ("N[C@@H](CO)C(=O)O", "wtPSP (human phosphoserine phosphatase, PSP) (Homo sapiens, UniProt P78330, D32G/R27S)", 523),
]

====

- study target: wtPSP (human phosphoserine phosphatase, PSP) (Homo sapiens, UniProt P78330, R27S)
- Construct: recombinant human PSP with His-tag, plasmid pET28_hPSP, E. coli BL21(DE3), Talon purification, homodimer (54 kDa expected; 53 kDa by SEC)
- Sequence (P78330 whole entry R27S): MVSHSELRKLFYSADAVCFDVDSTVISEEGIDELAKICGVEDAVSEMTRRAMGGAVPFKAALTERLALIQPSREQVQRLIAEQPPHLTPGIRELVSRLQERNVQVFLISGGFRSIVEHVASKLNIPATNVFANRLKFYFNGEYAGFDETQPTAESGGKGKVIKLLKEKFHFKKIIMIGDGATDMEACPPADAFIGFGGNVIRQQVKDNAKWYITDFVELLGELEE
- procedure text: PNP-coupled phosphate release assay

# smiles notation, study target, IC50
measured = [
    ("N[C@@H](CO)C(=O)O", "wtPSP (human phosphoserine phosphatase, PSP) (Homo sapiens, UniProt P78330, R27S)", "171 µM"),
]

These measurements were taken from paper PMC12443467.
